tgt: Phosphodiesterase 4 (Homo sapiens, UniProt P27815+Q08499+Q07343+Q08493)
procedure_summary: Inhibitory activity against phosphodiesterase 4 carried out in the cytosol of human neutrophils
Assay type: protein assay
value_kind: Log IC50

{"compound": "COc1ccc(C2=NNC(=O)[C@@H]3CC=CC[C@H]23)cc1OC1CCCC1 (relative stereo)", "result": -7.4}
{"compound": "COc1ccc(C2=NNC(=O)C3CC=CCC23)cc1OC (racemic)", "result": -7}
{"compound": "COc1ccc(C2=NN(C3C4CC5CC(C4)CC3C5)C(=O)C3CC=CCC23)cc1OC (racemic)", "result": -9.2}
{"compound": "CCOC(=O)c1ccc(N2N=C(c3ccc(OCC)c(OCC)c3)[C@H]3CC=CC[C@H]3C2=O)cc1", "result": -8.2}
{"compound": "COc1ccc(C2=NNC(=O)C3CC=CCC23)c2c1OC1(CCCC1)C2 (racemic)", "result": -8}
{"compound": "COc1ccc(C2=NN(C3C4CC5CC(C4)CC3C5)C(=O)[C@@H]3CC=CC[C@H]23)cc1OC (single isomer, unassigned; (+))", "result": -9.3}
{"compound": "COc1ccc(C2=NNC(=O)[C@H]3CC=CC[C@@H]23)cc1OC1CCCC1", "result": -6.7}
{"compound": "COc1ccc(C2=NNC(=O)[C@@H]3CCCC[C@H]23)c2c1OC1(CCCC1)C2", "result": -7.8}

----------
tgt: Phosphodiesterase 4 (Homo sapiens, UniProt P27815+Q08499+Q07343+Q08493)
procedure_summary: Inhibitory activity against phosphodiesterase 4 carried out in the cytosol of human neutrophils
Format: protein assay
value_kind: Log IC50

{"molecule": "COc1ccc(C2=NNC(=O)[C@H]3CC=CC[C@@H]23)cc1OC", "tgt": "Phosphodiesterase 4 (Homo sapiens, UniProt P27815+Q08499+Q07343+Q08493)", "Log IC50": -6.1}
{"molecule": "COc1ccc(C2=NNC(=O)[C@H]3CCCC[C@@H]23)c2c1OC1(CCCC1)C2", "tgt": "Phosphodiesterase 4 (Homo sapiens, UniProt P27815+Q08499+Q07343+Q08493)", "Log IC50": -5.6}
{"molecule": "COc1ccc(C2=NNC(=O)C3CCCCC23)c2c1OC1(CCCC1)C2 (racemic)", "tgt": "Phosphodiesterase 4 (Homo sapiens, UniProt P27815+Q08499+Q07343+Q08493)", "Log IC50": -7.3}
{"molecule": "COc1ccc(C2=NNC(=O)[C@@H]3CC=CC[C@H]23)c2c1OC1(CCCC1)C2", "tgt": "Phosphodiesterase 4 (Homo sapiens, UniProt P27815+Q08499+Q07343+Q08493)", "Log IC50": -8.5}
{"molecule": "COc1ccc(C2=NNC(=O)C3CCCCC23)cc1OC (stereo not drawn)", "tgt": "Phosphodiesterase 4 (Homo sapiens, UniProt P27815+Q08499+Q07343+Q08493)", "Log IC50": -6.4}
{"molecule": "COc1ccc(C2=NNC(=O)C3CCCCC23)cc1OC1CCCC1 (stereo not drawn)", "tgt": "Phosphodiesterase 4 (Homo sapiens, UniProt P27815+Q08499+Q07343+Q08493)", "Log IC50": -6.8}
{"molecule": "CCOc1ccc(C2=NN(c3ccc(C(=O)O)cc3)C(=O)[C@@H]3CC=CC[C@H]23)cc1OCC", "tgt": "Phosphodiesterase 4 (Homo sapiens, UniProt P27815+Q08499+Q07343+Q08493)", "Log IC50": -8.3}
{"molecule": "COc1ccc(C2=NNC(=O)[C@H]3CCCC[C@@H]23)cc1OC1CCCC1", "tgt": "Phosphodiesterase 4 (Homo sapiens, UniProt P27815+Q08499+Q07343+Q08493)", "Log IC50": -5.8}
{"molecule": "COc1ccc(C2=NNC(=O)C3CC=CCC23)cc1OC1CCCC1 (stereo not drawn)", "tgt": "Phosphodiesterase 4 (Homo sapiens, UniProt P27815+Q08499+Q07343+Q08493)", "Log IC50": -7.1}
{"molecule": "CCOC(=O)c1ccc(N2N=C(c3ccc(OCC)c(OCC)c3)C3CC=CCC3C2=O)cc1 (racemic)", "tgt": "Phosphodiesterase 4 (Homo sapiens, UniProt P27815+Q08499+Q07343+Q08493)", "Log IC50": -8}
{"molecule": "COc1ccc(C2=NNC(=O)[C@@H]3CCCC[C@H]23)cc1OC1CCCC1 (relative stereo)", "tgt": "Phosphodiesterase 4 (Homo sapiens, UniProt P27815+Q08499+Q07343+Q08493)", "Log IC50": -7.1}
{"molecule": "COc1ccc(C2=NNC(=O)[C@H]3CCCC[C@@H]23)cc1OC", "tgt": "Phosphodiesterase 4 (Homo sapiens, UniProt P27815+Q08499+Q07343+Q08493)", "Log IC50": -5.1}
{"molecule": "CCOc1ccc(C2=NN(c3ccc(C(=O)O)cc3)C(=O)C3CC=CCC23)cc1OCC (racemic)", "tgt": "Phosphodiesterase 4 (Homo sapiens, UniProt P27815+Q08499+Q07343+Q08493)", "Log IC50": -7.7}
{"molecule": "COc1ccc(C2=NN(C3C4CC5CC(C4)CC3C5)C(=O)[C@H]3CC=CC[C@@H]23)cc1OC (single isomer, unassigned; (-))", "tgt": "Phosphodiesterase 4 (Homo sapiens, UniProt P27815+Q08499+Q07343+Q08493)", "Log IC50": -6.9}
{"molecule": "COc1ccc([C@H](Cc2ccncc2)c2ccccc2)cc1OC1CCCC1", "tgt": "Phosphodiesterase 4 (Homo sapiens, UniProt P27815+Q08499+Q07343+Q08493)", "Log IC50": -7.7}
{"molecule": "COc1ccc(C2=NNC(=O)[C@H]3CC=CC[C@@H]23)c2c1OC1(CCCC1)C2", "tgt": "Phosphodiesterase 4 (Homo sapiens, UniProt P27815+Q08499+Q07343+Q08493)", "Log IC50": -6.6}
{"molecule": "COc1ccc(C2=NNC(=O)[C@@H]3CC=CC[C@H]23)cc1OC (relative stereo)", "tgt": "Phosphodiesterase 4 (Homo sapiens, UniProt P27815+Q08499+Q07343+Q08493)", "Log IC50": -7.3}
{"molecule": "COc1ccc(C2=NNC(=O)[C@@H]3CCCC[C@H]23)cc1OC (relative stereo)", "tgt": "Phosphodiesterase 4 (Homo sapiens, UniProt P27815+Q08499+Q07343+Q08493)", "Log IC50": -6.9}
